molecular target: acetylcholine receptor; experiment: SPR, AchR immobilized on CM5 chip, peptide at 10 uM
measured.parameter: Binding affinity (RU)

binder: KQISKK [6mer-2-343]
measured.parameter: Binding affinity (RU)
unit.string: RU
observed.measurement: 146
--
binder: KLVRRK [6mer-2-383]
measured.parameter: Binding affinity (RU)
unit.string: RU
observed.measurement: 128
--
binder: KRFSKK [6mer-2-346]
measured.parameter: Binding affinity (RU)
unit.string: RU
observed.measurement: 153
--
binder: KFWAK [5mer-1018]
measured.parameter: Binding affinity (RU)
unit.string: RU
observed.measurement: 20
